All figures here come from PubChem BioAssay.

- Assay Method Text: viability loss with induced miR-34 in A549 – imaging, A549 dox-inducible miR-34, nuclei and caspase counts, primary screen (AID 1347080)
- Assay Setup: A549 miR-34 inducible, Hoechst nuclei count, 48 h; measured here: total cells with miR-34 induction; stronger effect = lower value
I'd appreciate it if you marked entries yes when cell count is lower than 8000 and no when it is not.

>  <Molecule>
O=C(NOCC(O)CO)c1ccc(F)c(F)c1Nc1ccc(I)cc1F (stereo unspecified)

>  <Label Value>
yes

$$$$
>  <Molecule>
Cn1cc(-c2ccc3nnc(Sc4ccc5ncccc5c4)n3n2)cn1

>  <Label Value>
yes

$$$$
>  <Molecule>
CCCCCCCCCC(=O)CC(=O)N[C@H]1CCOC1=O

>  <Label Value>
yes

$$$$
>  <Molecule>
NC(N)=Nc1ccc(Cl)cc1

>  <Label Value>
no

$$$$
>  <Molecule>
CC1(C(=O)O)NCCc2cc(O)c(O)cc21 (stereo unspecified)

>  <Label Value>
no

$$$$
>  <Molecule>
COc1cc(Nc2nc3ccccc3nc2NS(=O)(=O)c2ccc(NC(=O)c3ccc(C)c(OC)c3)cc2)cc(OC)c1

>  <Label Value>
yes

$$$$
>  <Molecule>
CC(C)OC(=O)C1=CN(C(=O)c2ccc(F)c(F)c2)CC(C)(C)c2c1[nH]c1ccccc21

>  <Label Value>
yes

$$$$
>  <Molecule>
CCCCC/C=C\C/C=C\C/C=C\C/C=C\CCCC(=O)OCC(O)CO (stereo unspecified)

>  <Label Value>
yes

$$$$
>  <Molecule>
CCc1ccccc1OC[C@@H](O)CN[C@H]1CCCc2ccccc21

>  <Label Value>
yes

$$$$

====

- Assay Method Text: MELAS cybrid and Rieske KO viability enhancers – cell-based, MELAS cybrids, Rieske KO mouse fibroblasts, CellTiter-Glo, primary screen (AID 1508586);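 further: z relative to plate mean and SD of compound and empty wells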
- Assay Setup: MELAS cybrid survival, low glucose, CellTiter-Glo 48 h; stronger effect = higher value
// label = condition met if z-score is not less than -0.4, otherwise condition not met

>  <Compound>
O=c1c(O)c(-c2cc(O)c(O)c(O)c2)oc2cc(O)cc(O)c12

>  <Label Value>
condition met

$$$$
>  <Compound>
OCc1ccc(-c2ccc(-c3ccc(CO)s3)o2)s1

>  <Label Value>
condition not met

$$$$
>  <Compound>
COc1ccc(C2(C#N)CCC(C(=O)O)CC2)cc1OC1CCCC1 (stereo not given)

>  <Label Value>
condition met

$$$$
>  <Compound>
CCCS(=O)(=O)Nc1ccc(F)c(C(=O)c2c[nH]c3ncc(Cl)cc23)c1F

>  <Label Value>
condition not met

$$$$
>  <Compound>
CC(Nc1ncnc2nc[nH]c12)c1cc2cccc(Cl)c2c(=O)n1-c1ccccc1 (stereo not given)

>  <Label Value>
condition met

$$$$
>  <Compound>
CC1COC2(CCN(c3nc(=O)c4cc(C(F)(F)F)cc([N+](=O)[O-])c4s3)CC2)O1 (stereo not given)

>  <Label Value>
condition not met

$$$$
>  <Compound>
CS(=O)(=O)c1cccc(CNc2nc(Nc3ccc4c(c3)CCC(=O)N4)ncc2C(F)(F)F)c1

>  <Label Value>
condition met

$$$$
>  <Compound>
c1cn2cc(-c3ccc4cn[nH]c4c3)nc(Nc3ccc(N4CCOCC4)cc3)c2n1

>  <Label Value>
condition met

$$$$
>  <Compound>
O=C1NC(O)=NC1(c1ccccc1)c1ccccc1

>  <Label Value>
condition met

$$$$
>  <Compound>
O=C(NC1CCNCC1)c1[nH]ncc1NC(=O)c1c(Cl)cccc1Cl

>  <Label Value>
condition met

$$$$

====

- Assay Method Text: drug combination growth inhibition, ovarian cancer – cell-based, oncology-focused library, rucaparib conditional, profiling panel (AID 1508598)
- Assay Setup: patient-derived ovarian cancer cells, CellTiter-Glo viability, 144 h; at 0.00488 µM; OCI-C5x cells; with rucaparib 10 µM; 100% = cells with rucaparib alone
Active and inactive are the calls of the source.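 The calls were made as follows: active = normalized viability below 100% at a tested concentration; inactive = the rest.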
Classes used: active, inactive

>  <Compound>
COc1ncc(-c2ccc3nccc(-c4ccnnc4)c3c2)cc1NS(=O)(=O)c1ccc(F)cc1F

>  <Label Value>
active

$$$$
>  <Compound>
O=C(Nc1ccc(OC(F)(F)F)cc1)c1sccc1NCc1ccnc2ccccc12

>  <Label Value>
active

$$$$
>  <Compound>
CC(C)[C@H](C(=O)Nc1ccc(C(=O)NO)cc1)c1ccccc1

>  <Label Value>
inactive

$$$$
>  <Compound>
Cn1cc(-c2ccc3c(c2)CCN3C(=O)Cc2cccc(C(F)(F)F)c2)c2c(N)ncnc21

>  <Label Value>
inactive

$$$$
>  <Compound>
CC1(O)CC(c2nc(-c3ccc4ccc(-c5ccccc5)nc4c3)c3c(N)nccn23)C1 (stereo not given)

>  <Label Value>
inactive

$$$$
>  <Compound>
Cc1ccc(S(=O)(=O)Nc2nc3ccccc3nc2Nc2ccc3nsnc3c2)cc1

>  <Label Value>
inactive

$$$$
>  <Compound>
O=C(Nc1cn[nH]c1-c1nc2ccc(CN3CCOCC3)cc2[nH]1)NC1CC1

>  <Label Value>
inactive

$$$$
>  <Compound>
COc1cc2nccc(Oc3ccc(NC(=O)NC4CC4)c(Cl)c3)c2cc1C(N)=O

>  <Label Value>
inactive

$$$$
>  <Compound>
CN[C@H]1CN(c2ccc3c(=O)c(C(=O)O)cn(-c4nccs4)c3n2)C[C@@H]1OC

>  <Label Value>
inactive

$$$$
>  <Compound>
O=C(O)CCC1CCC(c2cc(F)ccc2F)(S(=O)(=O)c2ccc(Cl)cc2)CC1 (stereo not given)

>  <Label Value>
inactive

$$$$
>  <Compound>
CCOc1cc(N2CCC(O)CC2)ccc1Nc1ncc2c(n1)N(C)c1ccccc1C(=O)N2C

>  <Label Value>
inactive

$$$$
>  <Compound>
C#Cc1cccc(Nc2ncnc3cc(OC)c(OCCCCCCC(=O)NO)cc23)c1

>  <Label Value>
inactive

$$$$
>  <Compound>
O=C(O)c1ccc2c(c1)nc(Nc1cccc(Cl)c1)c1ccncc12

>  <Label Value>
inactive

$$$$
>  <Compound>
Nc1cccc2c1C(=O)N(C1CCC(=O)NC1=O)C2=O (stereo not given)

>  <Label Value>
inactive

$$$$
>  <Compound>
C#Cc1cccc(Nc2ncnc3cc(OCCOC)c(OCCO)cc23)c1

>  <Label Value>
inactive

$$$$

====

- Assay Method Text: viability loss with induced miR-34 in A549 – imaging, A549 dox-inducible miR-34, nuclei and caspase counts, primary screen (AID 1347080)
- Assay Setup: A549 miR-34 inducible, Hoechst nuclei count, 48 h; measured here: total cells without miR-34 induction
Readout Name: cell count

>  <Compound>
CC/C=C\C/C=C\C/C=C\C/C=C\CCCCC(=O)OC

>  <Observed Measurement>
5160

$$$$
>  <Compound>
O=C(O)CCC/C=C\C[C@H]1C(=O)C[C@@H](O)[C@@H]1/C=C/[C@@H](O)Cc1ccccc1

>  <Observed Measurement>
5900

$$$$
>  <Compound>
CCCCCCCCCCCSCC(=O)O

>  <Observed Measurement>
5890

$$$$
>  <Compound>
C[C@@H](O)[C@@H]1NC(=O)[C@H](CCCCN)NC(=O)[C@@H](Cc2c[nH]c3ccccc23)NC(=O)[C@H](Cc2ccccc2)NC(=O)[C@@H](NC(=O)[C@H](N)Cc2ccccc2)CSSC[C@@H](C(=O)N[C@H](CO)[C@@H](C)O)NC1=O

>  <Observed Measurement>
10800

$$$$
>  <Compound>
C/C=C1\C2C=C(C)CC1(N)c1ccc(=O)[nH]c1C2 (stereo not given)

>  <Observed Measurement>
4110

$$$$
>  <Compound>
CNC(=O)c1ccc(N2C(=S)N(c3ccc(C#N)c(C(F)(F)F)c3)C(=O)C2(C)C)cc1F

>  <Observed Measurement>
8360

$$$$
>  <Compound>
C=C1C(=O)O[C@H](CCCCCCCC)[C@H]1C(=O)O

>  <Observed Measurement>
5890

$$$$
>  <Compound>
CCCCC/C=C\C/C=C\C/C=C\C/C=C\CCCC(=O)C(F)(F)F

>  <Observed Measurement>
5390

$$$$
>  <Compound>
CCCCCC(=O)/C=C/C=O

>  <Observed Measurement>
5720

$$$$
>  <Compound>
Cc1ccc(C(=O)Nc2cccc(C(F)(F)F)c2)cc1Nc1nc(-c2cccnc2)nc2c1cnn2C

>  <Observed Measurement>
3950

$$$$
>  <Compound>
O=C1NN(C(=O)Nc2ccc(Br)cc2)[C@@H](c2ccccc2)[C@@H]1c1ccccc1

>  <Observed Measurement>
10300

$$$$
>  <Compound>
O[C@H](CNC[C@@H](O)[C@H]1CCc2cc(F)ccc2O1)[C@@H]1CCc2cc(F)ccc2O1

>  <Observed Measurement>
3140

$$$$
>  <Compound>
Clc1cccc2c1CN(C1=NCCN1)C2

>  <Observed Measurement>
9940

$$$$
>  <Compound>
COc1ccc(C2=N[C@@H](c3ccc(Cl)cc3)[C@@H](c3ccc(Cl)cc3)N2C(=O)N2CCNC(=O)C2)c(OC(C)C)c1

>  <Observed Measurement>
3920

$$$$
>  <Compound>
CCCCCCCCCCCC1N[C@H](C(=O)O)CS1 (stereo not given in full)

>  <Observed Measurement>
5670

$$$$
>  <Compound>
CCCCCCCCCCCCCCCC(=O)NC(CO)CO

>  <Observed Measurement>
5440

$$$$
>  <Compound>
CCCCC[C@H](O)/C=C/[C@@H]1[C@@H](C/C=C/CCCC(=O)O)[C@H](O)C[C@H]1O

>  <Observed Measurement>
5540

$$$$
>  <Compound>
CCCC[C@H](C)C[C@H](O)/C=C/[C@H]1[C@H](O)CC(=O)[C@@H]1CCCC/C=C/C(=O)O

>  <Observed Measurement>
6200

$$$$
>  <Compound>
Cc1cnc(-c2cc(N3CCN(C(=O)CCS(C)(=O)=O)CC3)ncc2Cl)c(C)c1

>  <Observed Measurement>
10000

$$$$
>  <Compound>
C=CC(=O)Nc1ccc2ncnc(Nc3cccc(Br)c3)c2c1

>  <Observed Measurement>
3830

$$$$
>  <Compound>
O=C(Nc1ccccc1)N[C@H]1C[C@H](C(=O)O)Nc2cc(Cl)cc(Cl)c21

>  <Observed Measurement>
9460

$$$$
>  <Compound>
COc1cc([C@@H]2OC[C@@H](c3cc(OC)c(OC)c(OC)c3)O2)cc(OC)c1OC

>  <Observed Measurement>
5250

$$$$
>  <Compound>
OCCC/C=C/c1ccccc1

>  <Observed Measurement>
6210

$$$$
>  <Compound>
C=CC(=O)Nc1cccc(Sc2nc(Nc3ccc(N4CCN(C)CC4)cc3)ncc2Cl)c1

>  <Observed Measurement>
5660

$$$$
>  <Compound>
Cc1c(C(=O)NN2CCOCC2)nn(-c2ccc(Cl)cc2Cl)c1-c1ccc(I)cc1

>  <Observed Measurement>
9790

$$$$
>  <Compound>
O=C(O)CCC/C=C\C[C@@H]1[C@@H](CC[C@@H](O)CCc2cccc(C(F)(F)F)c2)[C@H](O)C[C@@H]1O

>  <Observed Measurement>
6830

$$$$
>  <Compound>
CS(=O)(=O)c1ccc(-c2cnc(N)c(C(=O)Nc3ccccc3)n2)cc1

>  <Observed Measurement>
4270

$$$$
>  <Compound>
OCCn1cc(-c2cnc3nnn(Cc4ccc5ncccc5c4)c3n2)cn1

>  <Observed Measurement>
8280

$$$$
>  <Compound>
CC(C)=CCC/C(C)=C/CC/C(C)=C/CC[C@]1(C)CCc2cc(O)cc(C)c2O1

>  <Observed Measurement>
5720

$$$$
>  <Compound>
CN(C)C(=O)C(=O)c1cn(C)c2cc(Cl)c(C(=O)N3CCC(Cc4ccc(F)cc4)CC3)cc12

>  <Observed Measurement>
4530

$$$$
>  <Compound>
CCCCCCCCCCCC(=O)NC[C@]1(C)CCC[C@]2(C)c3ccc(C(C)C)cc3CC[C@@H]12

>  <Observed Measurement>
6370

$$$$
>  <Compound>
O=C(NC1CCNCC1)c1[nH]ncc1NC(=O)c1c(Cl)cccc1Cl

>  <Observed Measurement>
1260

$$$$
>  <Compound>
O=C1c2cccc(O)c2C(=O)c2c(O)cc(CO)cc21

>  <Observed Measurement>
8280

$$$$
>  <Compound>
Cc1ccc(NC2=CC(=O)c3sc(C)nc3C2=O)cc1

>  <Observed Measurement>
1300

$$$$
>  <Compound>
Cc1nc2c([nH]1)CCN(C(=O)c1ccc(NC(=O)c3ccccc3-c3ccccc3)cc1)c1ccccc1-2

>  <Observed Measurement>
8690

$$$$
>  <Compound>
CC/C=C\C/C=C\C/C=C\C/C=C\CCCCC(=O)OCC

>  <Observed Measurement>
5650

$$$$
>  <Compound>
CCCCC[C@H](O)/C=C/[C@H]1C(=O)C[C@H](O)[C@@H]1C/C=C\CCCC(=O)OC

>  <Observed Measurement>
5620

$$$$
>  <Compound>
COc1cc(Nc2nc3ccccc3nc2NS(=O)(=O)c2ccc(NC(=O)c3ccc(C)c(OC)c3)cc2)cc(OC)c1

>  <Observed Measurement>
8180

$$$$
>  <Compound>
C1CCC2(CC1)CCNCC2

>  <Observed Measurement>
9730

$$$$
>  <Compound>
CCCCCCCCCCCCCCCCCCCCCCC(=O)OCC

>  <Observed Measurement>
5220

$$$$
